Hey, just so you know, these numbers are from PubChem BioAssay (NCI).

# Tested on: MALME-3M melanoma
# protocol.text: NCI tumour cell line growth inhibition, 48 h
Listing of entries alongside the reported TGI.
experimental.endpoint: TGI

>>> observed_result("COc1ccc(-c2cn(-c3cccc(C(=O)/C=C/c4cc(OC)c(OC)c(OC)c4)c3)c(=O)[nH]2)cc1")
"6.24 µM"
>>> observed_result("COc1ccc(OC)c(CCc2cc(OC)ccc2OC)c1")
"> 6.95 µM"
>>> observed_result("N#CC(C#N)N=Nc1ccc(-c2nc3ccccc3s2)cc1")
"7.99 µM"
>>> observed_result("NC(=O)c1ccc(NCC2=CC(=O)C=CC2=O)cc1")
"36.6 µM"
>>> observed_result("CCCCNC(=O)NNC(=O)c1cc(/C=C/c2cccc([N+](=O)[O-])c2)ncn1")
"> 100 µM"
>>> observed_result("O=C(O)c1ccccc1/C=C1\\Cc2ccccc2C1=O")
"> 100 µM"

###

# System: SK-OV-3 ovarian
# protocol.text: NCI tumour cell line growth inhibition, 48 h
experimental.endpoint: TGI (µM)

>>> observed_result("CNC[C@@H](NC(=O)c1ccc(-c2nc([C@H]3CC[C@H](O)[C@@H](F)C3)cnc2N)cc1F)c1cc(F)cc(Br)c1")
31.3
>>> observed_result("[O-][n+]1c2cc3c(cc2[n+]([O-])c2c(O)cccc21)CN(CCN1CCOCC1)C3")
58.9
>>> observed_result("O=C(O)CCC(=O)N1C/C(=C\\c2ccccc2)C(=O)/C(=C/c2ccccc2)C1")
25.3
>>> observed_result("COc1ccc(-c2cn(-c3cccc(C(=O)/C=C/c4cc(OC)c(OC)c(OC)c4)c3)c(=O)[nH]2)cc1")
61.2

###

Listing of entries alongside the reported TGI.
# System: SF-295 CNS
# protocol.text: NCI tumour cell line growth inhibition, 48 h
experimental.endpoint: TGI

>>> observed_result("C#CCN(Cc1ccc2nc(-c3ccccc3)c(Cl)nc2c1)c1cc(OC)c(OC)c(OC)c1")
"> 100 µM"
>>> observed_result("Cc1ccc(-n2c(=S)[nH]c3ccc(Br)cc3c2=O)cc1")
"> 100 µM"
>>> observed_result("C=CCCC1CCCCNC1=S (stereo unspecified)")
"> 10 µM"
>>> observed_result("COc1ccc(OC)c(CCc2cc(OC)ccc2OC)c1")
"> 7.31 µM"
>>> observed_result("CNc1nc(N)cc(=O)[nH]1")
"> 100 µM"
>>> observed_result("CC(=O)Nc1ccc(S(=O)(=O)/N=C2\\C=CC(=O)c3ccccc32)cc1")
"15.1 µM"

###

Listing of entries alongside the reported log10(TGI).
# Tested on: HCT-15 colon
# protocol.text: NCI tumour cell line growth inhibition, 48 h
experimental.endpoint: log10(TGI) (log10 of the value in µM)

>>> observed_result("CCOC(=O)NC(C(F)(F)F)(C(F)(F)F)P(=O)(OCC(C)C)OCC(C)C")
1.23
>>> observed_result("O=C(Nc1ccc(Cl)cc1)/C(=C(/[O-])c1ccc(Br)cc1)[n+]1cccc(-c2ccc(Cl)cc2)n1")
1.71
>>> observed_result("Cc1oc2nc[nH]c(=O)c2c1C(=O)/C=C/c1ccc(Br)cc1")
0.70
>>> observed_result("NC(=O)c1ccc(NCC2=CC(=O)C=CC2=O)cc1")
1.58
>>> observed_result("Oc1cc(Cn2cnc3c(Cl)nc(Cl)nc32)ccc1C12CC3CC(CC(C3)C1)C2")
1.47
>>> observed_result("N#CC(C#N)N=Nc1ccc(-c2nc3ccccc3s2)cc1")
1.13
>>> observed_result("CN1CCN(Cc2ccc(NC(=O)c3cncc(C#Cc4cnc5ccc(Cl)nn45)c3)cc2C(F)(F)F)CC1")
0.53
>>> observed_result("CC1[C@@H]2CC=C3C4CCC5Cc6nc7c(nc6C[C@@]5(C)C4CC(=O)[C@]32CO[C@@]1(O)C(O)CC(C)(C)O)CC1CCC2C3=C[C@H]4O[C@@]5(O[C@@](C)(CO)C[C@@H]5O)C(C)[C@@]4(O)[C@]3(C)[C@@H](O)CC2[C@]1(C)C7 (stereo not given in full)")
-0.48
>>> observed_result("CCNC(=O)OCC1C2=C(C(=O)C(C)=C(N)C2=O)N2CC3C(N3C)C12OC (stereo not given)")
1.71

###

# System: MDA-N
# protocol.text: NCI tumour cell line growth inhibition, 48 h
experimental.endpoint: TGI (µM)

>>> observed_result("COc1ccc2[nH]c(Cl)c(/C=C3/C(=O)N(c4ccccc4)c4ccccc43)c2c1")
3.53
>>> observed_result("O=C1C=C(Nc2cccnc2)c2ccccc2C1=O")
1.42
>>> observed_result("CC(=O)O[C@H]1C(=O)[C@@]2(C)[C@H]([C@H](OC(=O)C3CCCCC3)[C@]3(O)C[C@H](OC(=O)[C@H](O)[C@@H](NC(=O)OC(C)(C)C)c4ccccc4)C(C)=C1C3(C)C)[C@]1(OC(C)=O)CO[C@@H]1C[C@@H]2O")
0.0173
>>> observed_result("O=c1oc2ccccc2c(O)c1/C=N\\c1nc(-c2ccc(O)c(O)c2)cs1")
18.8
>>> observed_result("S=c1[nH]nc(C23CC4CC(CC(C4)C2)C3)n1-c1ccc(Cl)cc1")
41.1
>>> observed_result("C=C(C)C12OC3(c4ccccc4)OC1C1C4OC4(CO)C(O)C4(O)C(=O)C(C)=CC4C1(O3)C(C)C2OC(=O)/C=C/C=C/c1ccccc1 (stereo not given)")
0.817

###

# Tested on: EKVX NSCLC
# protocol.text: NCI tumour cell line growth inhibition, 48 h
Listing of entries alongside the reported TGI.
experimental.endpoint: TGI

>>> observed_result("Cc1nn(CN2CCN(C)CC2)c(=S)n1/N=C/c1ccc(-c2ccc(Cl)cc2Cl)o1")
"88.8 µM"
>>> observed_result("O=C(O)CCC(=O)N1C/C(=C\\c2ccccc2)C(=O)/C(=C/c2ccccc2)C1")
"15.9 µM"
>>> observed_result("CCNC(=O)OCC1C2=C(C(=O)C(C)=C(N)C2=O)N2CC3C(N3C)C12OC (stereo not given)")
"> 100 µM"
>>> observed_result("O=C(O)CCC[C@]1(O)O[C@@]2(CCCC2=O)[C@]2(O)CCC[C@@]21O")
"> 100 µM"
>>> observed_result("N#Cc1nc(/C=C/c2nc(C#N)c(N)o2)oc1N")
"> 10 µM"
>>> observed_result("Cc1oc2nc[nH]c(=O)c2c1C(=O)/C=C/c1ccc(Br)cc1")
"12.8 µM"
>>> observed_result("COc1ccc(N2CCOCC2)cc1")
"> 100 µM"
>>> observed_result("O=C(/C=C/c1ccccc1O)c1cccs1")
"> 100 µM"
>>> observed_result("Cc1cc(C)c(-n2c(-c3ccccc3)cs/c2=N\\N=C2C=C(C(C)(C)C)C(=O)C(C(C)(C)C)=C2)c(C)c1")
"> 100 µM"
>>> observed_result("Brc1cccc(Nc2ncnc3sc4c(c23)CCC2(C4)OCCO2)c1")
"> 100 µM"

###

# Test system: NCI-H23 lung
# protocol.text: NCI tumour cell line growth inhibition, 48 h
experimental.endpoint: TGI

>>> observed_result("CC(=O)O[C@H]1[C@@H]2OC(=O)C3(CC3)C2C[C@H]2O[C@]2(C)CC/C=C(\\C)CCC[C@@H]1C (stereo partly drawn)")
"> 100 µM"
>>> observed_result("OC(Cc1ccc2ccccc2n1)(C(F)(F)F)C(F)(F)F")
"> 10 µM"
>>> observed_result("Nc1nnnn1NC(=O)NCCCl")
"> 10 µM"

###

# Tested on: IGROV1 ovarian
# protocol.text: NCI tumour cell line growth inhibition, 48 h; in the data active = GI50 below about 0.43 µM; inactive = the rest
Where a SMILES comes first, the peptide text is derived from it. [ ]: non-standard residue; d: D form. The star is where a group is joined. ξ: configuration not given here. NMeF = CN[C@@H](Cc1ccccc1)C(=O)O; NMeN = CN[C@@H](CC(N)=O)C(=O)O; NMeV = CN[C@H](C(=O)O)C(C)C; ξNMeV = CNC(C(=O)O)C(C)C; Boc = CC(C)(C)OC(=O)*; ξNMeA = CNC(C)C(=O)O; ξV = CC(C)C(N)C(=O)O
Labels: 1 (yes) = active, 0 (no) = inactive

>>> assigned_label("Oc1ccc(Cl)cc1-c1cc(-c2ccc(Cl)cc2)n[nH]1")
"0 (no)"
>>> assigned_label("CCOC(=O)C#Cc1c(C(=O)OCC)nnn1Cc1ccc(C(F)(F)F)cc1")
"0 (no)"
>>> assigned_label("CS(=O)(=O)OCCn1c2c(c3c(O)cccc31)C(=O)c1ccccc1-2")
"0 (no)"
>>> assigned_label("COc1cc(/C=C\\c2cc(/C=C\\c3ccc(O)c(OC)c3)n(C(=O)COc3ccccc3)n2)ccc1O")
"0 (no)"
>>> assigned_label("CC(=O)O[C@H]1[C@@H]2OC(=O)C3(CC3)C2C[C@H]2O[C@]2(C)CC/C=C(\\C)CCC[C@@H]1C (stereo not given in full)")
"0 (no)"
>>> assigned_label("C/C=C/C[C@@H](C)C(=O)C1C(=O)N[C@@H](C(C)C)C(=O)N(C)CC(=O)N(C)[C@@H](CC(C)C)C(=O)N[C@@H](C(C)C)C(=O)N(C)[C@@H](CC(C)C)C(=O)N[C@@H](C)C(=O)N[C@@H](C)C(=O)N(C)[C@@H](CC(C)C)C(=O)N(C)[C@@H](CC(C)C)C(=O)N(C)[C@@H](C(C)C)C(=O)N1C (stereo not given in full)")
"0 (no)"
>>> assigned_label("O=C(C1CC1)N1CC[C@@H](Cc2n[nH]c(=O)n2-c2ccc(-c3ccc4occc4c3)cc2)C1")
"0 (no)"
>>> assigned_label("CNC[C@@H](NC(=O)c1ccc(-c2nc([C@H]3CC[C@H](O)[C@@H](F)C3)cnc2N)cc1F)c1cc(F)cc(Br)c1")
"0 (no)"
>>> assigned_label("CCN1CCN(Cc2ccc(NC(=O)c3nc4ccc5[nH]ncc5c4c4c3CCCC4)cc2C(F)(F)F)CC1")
"0 (no)"
>>> assigned_label("Cc1cnc(NC2CCOCC2)nc1-n1cnc(C(=O)N[C@H](CN)c2cc(F)cc(Cl)c2)c1")
"1 (yes)"
>>> assigned_label("Cc1cc(-c2ccc(C3C(C#N)=C(N)Oc4c3c(=O)oc3ccccc43)cc2)cnc1F (stereo not given)")
"0 (no)"
>>> assigned_label("Oc1cc(Cn2cnc3c(Cl)nc(Cl)nc32)ccc1C12CC3CC(CC(C3)C1)C2")
"0 (no)"
>>> assigned_label("CC(C)=C[C@@H]1C[C@H](C)[C@H]2CC[C@H](C)c3c(O)c(OC4OCC(O)C(O)C4O)c(C)c1c32 (stereo not given in full)")
"0 (no)"
>>> assigned_label("COC(=O)C(C)N(C)C(=O)[C@H](CC(N)=O)N(C)C(=O)[C@@H]1CCCN1C(=O)[C@H](C(C)C)N(C)C(=O)C(C(C)C)N(C)C(=O)[C@H](Cc1ccccc1)N(C)C(=O)C(NC(=O)OC(C)(C)C)C(C)C (stereo not given in full) (Boc-[ξV][NMeF][ξNMeV][NMeV]P[NMeN][ξNMeA]-OMe)")
"0 (no)"
>>> assigned_label("C1CCC(C(CC2CCCCN2)C2CCCCC2)CC1 (stereo not given)")
"0 (no)"
